# Test system: BpRpiB (D-ribose-5-phosphate isomerase)
# assay overview: Substrate specificity of BpRpiB
# Format: biochemical, Bacteroides plebeius
# condition set: substrate 2 mM, standard reaction conditions (50° C., 10 minutes)
So I've got a bunch of molecules here, and I need their Relative activity (%) values.
Report as a plain number; the unit % is understood.

Write down the reported Relative activity (%) of O=C(CO)[C@H](O)[C@H](O)COP(=O)(O)O [D-Ribulose-5-phosphate] , test system: BpRpiB (D-ribose-5-phosphate isomerase).
924.4

Entry `O=C[C@H](O)[C@H](O)[C@H](O)CO` , system BpRpiB (D-ribose-5-phosphate isomerase): what Relative activity (%) was measured?
79.1

So what Relative activity (%) did O=C[C@H](O)[C@H](O)[C@H](O)COP(=O)(O)O [D-Ribose-5-phosphate] get with BpRpiB (D-ribose-5-phosphate isomerase)?
933.9

---

# Tested on: BpRpiB (D-ribose-5-phosphate isomerase)
# assay overview: Substrate specificity of BpRpiB
# Format: biochemical, Bacteroides plebeius
# condition set: substrate 2 mM, standard reaction conditions (50° C., 10 minutes)
readout kind: Relative activity (%)

O=C[C@@H](O)[C@H](O)[C@H](O)CO: Not detected
O=C(CO)[C@@H](O)[C@H](O)CO: Not detected
O=C[C@H](O)[C@@H](O)[C@H](O)CO: Not detected
